The reported measurements were obtained from patent US9175024B2.

tested on: Lewis lung cancer; assay: MTT cytotoxicity, Lewis lung cancer; assay type: cell-based; details: n = 6, Lewis lung cancer
measured.property: IC50 (µM)
Dear colleague, please return just the value in µM, with no unit written.

In plain terms, CN(C)CCCC1CC(=O)[O][Pt]2([NH]C3CCCCC3[NH]2)[O]C1=O (stereo not drawn) has a documented IC50 of 51

Lab note: CCN(CC)CCC(CC(=O)[O-])C(=O)[O-].NC1CCCCC1N.[Pt+2] (racemic) gave IC50 of 28

# IC50 of CC(=O)NC(CC(=O)[O-])C(=O)[O-].NC1CCCCC1N.[Pt+2] (stereo not drawn) [Contrast Embodiment 1, reference compound] = 545
